Source: PubChem BioAssay (NCI)

Measured log10 TGI values are reported for all entries that follow.
- Tested on: HCC-2998 colon
- assay.remarks: NCI tumour cell line growth inhibition, 48 h
recorded.endpoint: log10 TGI (log10 of the value in µM)

| compound | log10 TGI |
| --- | --- |
| CCOc1cc(CCNC)c2c(ccc3ccc(OC)c(O)c32)c1OC | 1.48 |
| COc1cc(NC(=O)c2cc3ccccc3cc2O)c(OC)cc1Cl | 0.89 |
| CNC(=O)NCCCCC(NC(=O)OCc1ccccc1)C(=O)OCc1ccccc1 (centres undefined) | 1.57 |
| N#Cc1cc2c(=S)[nH]c(=S)[nH]c2nc1SCc1ccccc1 | 1.90 |
| CCOC(=O)/C=C(/C(=O)OCC)n1cc(C)c(=O)[nH]c1=O | 1.24 |
| COc1ccc(-n2nc(C(=O)c3ccccc3)c3nn4c(=O)cc(-c5ccccc5)nc4nc32)cc1 | 1.88 |
| COC(=O)C(Br)(C(=O)OC)C(Br)C(Br)C(Br)c1ccccc1 (centres undefined) | 1.51 |
| COc1ncc(-c2ccc3ncnc(Nc4cccc(Cl)c4)c3c2)cc1NS(C)(=O)=O | 1.17 |
| CN1CCN(c2ccc(NC(=O)c3cncnc3Nc3ccc4c(ccn4Cc4cccc(F)c4)c3)cc2)CC1 | 0.87 |
| CC(=O)OCCC/C(=C/c1cc2ccccc2c2ccccc12)[N+](=O)[O-] | 0.48 |
| CCN(CC)CCC(CNc1c(C)cnc2cc(Cl)ccc12)c1ccc(Cl)c(Cl)c1 (centres undefined) | 0.53 |
| CCOC(=O)c1nc2ccc(C(F)(F)F)cc2nc1NCc1ccc(F)cc1 | 1.89 |
| C/C=C/C(O)P(=O)(OC)OC (centres undefined) | -0.11 |
| CN(CCCN1CCCC1)CCCN(C)C(=O)Cc1ccc(Cl)c(Cl)c1 | 1.31 |
| CCOC(=O)c1cccc(N=Nc2ncc(/C=C/C(=O)OC)[nH]2)c1 | 1.64 |
| CC(C)C(=O)/C=C/c1ccc(Cl)cc1Cl | 1.48 |
| COC(=O)C[C@@H]1CC=CC(=O)/C1=C(O)/C=C/c1ccccc1 | 0.51 |
| COc1ccc(N2C(=O)C3c4[nH]c5ccc(OC)cc5c4C4CCC(c5ccccc5)CC4C3C2=O)cc1 (centres undefined) | 1.69 |
| CC(C)(C)[Si](C)(C)O/N=C\c1cccc(O[Si](C)(C)C(C)(C)C)c1 | 1.54 |

---

- Tested on: BT-549 breast
- assay.remarks: NCI tumour cell line growth inhibition, 48 h
List of TGI values.

| compound | unit.string | result.comparator | TGI |
| --- | --- | --- | --- |
| CN1CCC(n2cnc(-c3ccc(F)cc3)c2-c2ccnc(Nc3ccccc3)n2)CC1 | µM | > | 25 |
| O=C1/C(=C/c2ccc([N+](=O)[O-])cc2)Sc2scc(-c3cccc([N+](=O)[O-])c3)[n+]21 | µM | = | 18.7 |
| Cc1ccc(S(=O)(=O)Nc2cc(=O)[nH]c3c2CCC3)cc1 | µM | > | 100 |
| CC(=O)OCCC/C(=C/c1cc2ccccc2c2ccccc12)[N+](=O)[O-] | µM | = | 3.26 |
| COc1ccc(N2C(=O)C3c4[nH]c5ccc(OC)cc5c4C4CCC(c5ccccc5)CC4C3C2=O)cc1 (stereo not given) | µM | = | 58.7 |

---

- Test system: T-47D breast
- assay.remarks: NCI tumour cell line growth inhibition, 48 h
Catalogue of TGI readings, one per entry.
recorded.endpoint: TGI

| compound | experimental.target | observed |
| --- | --- | --- |
| N#CC(C#N)=C(N)/C(C#N)=C/c1ccc(O)c(O)c1 | T-47D breast | > 100 µM |
| C=C(C)C1Cc2cc(C(C)=O)ccc2O1 (stereo not given) | T-47D breast | > 100 µM |
| CN(CCCN1CCCC1)CCCN(C)C(=O)Cc1ccc(Cl)c(Cl)c1 | T-47D breast | 45.9 µM |
| O=C1c2ccccc2-c2c1c1ccc([N+](=O)[O-])cc1c(=O)n2CCN1CCOCC1 | T-47D breast | > 100 µM |
| CN(CCCNC(=O)c1nn(-c2ccccc2)c2c1Cc1ccccc1-2)CCCNC(=O)c1nn(-c2ccccc2)c2c1Cc1ccccc1-2 | T-47D breast | 3.6 µM |

---

- System: SNB-75 CNS
- assay.remarks: NCI tumour cell line growth inhibition, 48 h
GI50 listing for selected molecules.

| molecule | GI50 |
| --- | --- |
| COc1cc(-c2cn(-c3ccc(F)cc3)c(=O)[nH]2)cc(OC)c1OC | 55.6 µM |
| Cc1cc(O)cc(-c2nn(C)cc2-c2cc(N3CCOCC3)nc(-c3cccnc3)n2)c1 | 1.48 µM |
| C=C(C)[C@@H]1CC[C@]2(COC(=O)c3ccccc3C(=O)O)CC[C@]3(C)[C@H](CC[C@@H]4[C@@]5(C)CC[C@H](OC(=O)c6ccccc6C(=O)O)C(C)(C)[C@@H]5CC[C@]43C)[C@@H]12 | 15.4 µM |
| CC12OC(C(=O)C13CCC3)C1C(=O)c3c(O)ccc(O)c3C(=O)C12 (stereo not drawn) | 4.99 µM |
| CCOC(=O)CC1C(CNC(=O)NC)OC(n2cnc3c(NC(=O)Nc4ccccc4)ncnc32)C1O[Si](C)(C)C(C)(C)C (stereo not drawn) | 4.56 µM |
| O=C1c2ccccc2-c2c1c1ccc3ccccc3c1n2-c1ccccc1 | 81.2 µM |
| COc1ncc(-c2ccc3ncnc(Nc4cccc(Cl)c4)c3c2)cc1NS(C)(=O)=O | 0.158 µM |
| CCN(CC)CCC(CNc1c(C)cnc2cc(Cl)ccc12)c1ccc(Cl)c(Cl)c1 (stereo not drawn) | 3.9 µM |

---

- System: SK-MEL-28 melanoma
- assay.remarks: NCI tumour cell line growth inhibition, 48 h
Measured GI50, listed per entry.

| compound | GI50 |
| --- | --- |
| CCC1C[N+]2=C(c3cc(OC)c(OC)cc3CC2)c2c1cc1n2CCc2cc(OC)c(OC)cc2-1 (stereo unspecified) | 1930 nM |
| CCN1Cc2c(/C=C/c3ccccc3)nc3ccc(OC)cc3c2N(c2cccc(Cl)c2)C1 | 1780 nM |
| CC(C)CCCC(C)[C@H]1CCC2C3CC=C4C[C@@H](OC(=O)CC(CC(=O)[O-])C(=O)[O-])CC[C@]4(C)C3CC[C@@]21C.N.N.[Pt+4] (stereo partly specified) | > 100000 nM |
| NCCNc1nc2ccc(F)cc2c2c(=O)c3cc(F)ccc3sc12 | 2050 nM |
| COc1cc2c3c(n(CCCN=[N+]=[N-])c(=O)c2cc1OC)-c1ccc(NC(C)=O)cc1C3=O | > 50000 nM |
| COc1ccc(/C=N/C2=NNC(C)(c3ccccc3O)N2C(Cc2c[nH]c3ccccc23)C(=O)O)cc1 (stereo unspecified) | 2670 nM |

---

- Tested on: SNB-75 CNS
- assay.remarks: NCI tumour cell line growth inhibition, 48 h

| molecule | TGI |
| --- | --- |
| CCN1C(=O)N[C@H]2[C@@H]3NC(=O)c4ccc(Cl)n4[C@@H]3C[C@]21O | 7.63 µM |
| N#CCc1nc(-c2cc3ccc(O)cc3oc2=O)cs1 | > 100 µM |
| O=C(/C=C/c1ccc(O)c(O)c1)O[C@H]1CCCC[C@@H]1OC(=O)/C=C/c1ccc(O)c(O)c1 | > 100 µM |
| CC1(C)OC2C(O1)[C@H]1OC(C(Cl)(Cl)Cl)=N[C@H]1C(I)[C@H]2N1C(=O)c2ccccc2C1=O (stereo not given in full) | > 100 µM |
| COc1ccc2c(ccc3oc([N+](=O)[O-])cc32)c1 | 0.573 µM |
| COc1ccc(/C=N/NC(=O)CSc2nc(-c3ccccc3)c(-c3ccccc3)[nH]2)cc1OC | 77 µM |
| COc1ccccc1CNC(=O)/C=C/c1ccc(O)c(O)c1 | > 100 µM |
| CC(C)C1COC(C(C)(C)C2=N[C@@H](C(C)C)CO2)=N1 (stereo not given in full) | > 100 µM |
| Cc1ccc(S(=O)(=O)Nc2cc(=O)[nH]c3c2CCC3)cc1 | > 100 µM |
| COc1cc2c3c(n(CCCN=[N+]=[N-])c(=O)c2cc1OC)-c1ccc(NC(C)=O)cc1C3=O | > 50 µM |

---

Listing: TGI of selected compounds
- Test system: XF 498 CNS
- assay.remarks: NCI tumour cell line growth inhibition, 48 h

| compound | TGI |
| --- | --- |
| N#CC(C#N)=C(N)/C(C#N)=C/c1ccc(O)c(O)c1 | > 100 µM |
| CNC(=O)NCCCCC(NC(=O)OCc1ccccc1)C(=O)OCc1ccccc1 (stereo unspecified) | 33.2 µM |
| FC(F)(F)c1nc2c(ccc3[nH]c4c(-c5ccccc5)nccc4c32)[nH]1 | > 100 µM |
| COc1ccc(C2C(C(=O)O)=C(CO)Oc3cc4c(cc32)OCO4)c(OC)c1 (stereo unspecified) | > 100 µM |
| CC(C)=CC1(C)/C(=N\O)C(C)(CC(C)C)C(=O)N1O (stereo unspecified) | > 100 µM |
| OC1CCSc2ccccc21 (stereo unspecified) | > 100 µM |
| CC(C)C(=O)CC(c1ccc(Br)cc1)N1N=C(C(C)C)CC1c1ccc(Br)cc1 (stereo unspecified) | 59 µM |
| CC(=O)NC(CCCCN(Cc1ccccc1)C(=O)N(C)N=O)C(=O)NCc1ccccc1 (stereo unspecified) | > 100 µM |
| Cc1c(-c2cc(-c3ccccc3)n[nH]c2=O)c2ccccc2n1C | > 100 µM |
| COc1cc2ccnc(-c3n[nH]c4cc(OC)c(OC)cc34)c2cc1OC | > 100 µM |
| COC(=O)[C@H]1C2CC[C@@H]3C45C[C@@H](c6ccoc6)O[C@@H]4O[C@@H](O2)C31CCC5C (stereo partly specified) | > 100 µM |
| CC(C)(C)c1cc(C#N)c2c(c1)C(=O)OC2(c1ccccc1)c1ccccc1C#N (stereo unspecified) | > 100 µM |
| CC/C(=N/O)C(C)C(=O)CCC(=O)Nc1ccc(Cl)cc1 (stereo unspecified) | > 100 µM |
| CCOC(=O)C1=C(Nc2cccc3ccccc23)OCC1=O | > 100 µM |
| COc1ccccc1C(=O)Nc1ccc(Cl)c(C(=O)OC(C)C)c1 | 54.7 µM |
| NC(=S)N/N=C(/CCN1CCCC1)CC(C1=C(O)C2=CCCCC2OC1=O)c1ccccc1 (stereo unspecified) | > 100 µM |
